Reported EC50 values for the following molecules.
target: UniProtKB Q9Z351; assay: Whole-cell patch-clamp on recombinant mouse KCNQ2 channels expressed in HEK 293 cells at -40 mV
Sequence (Q9Z351 whole entry): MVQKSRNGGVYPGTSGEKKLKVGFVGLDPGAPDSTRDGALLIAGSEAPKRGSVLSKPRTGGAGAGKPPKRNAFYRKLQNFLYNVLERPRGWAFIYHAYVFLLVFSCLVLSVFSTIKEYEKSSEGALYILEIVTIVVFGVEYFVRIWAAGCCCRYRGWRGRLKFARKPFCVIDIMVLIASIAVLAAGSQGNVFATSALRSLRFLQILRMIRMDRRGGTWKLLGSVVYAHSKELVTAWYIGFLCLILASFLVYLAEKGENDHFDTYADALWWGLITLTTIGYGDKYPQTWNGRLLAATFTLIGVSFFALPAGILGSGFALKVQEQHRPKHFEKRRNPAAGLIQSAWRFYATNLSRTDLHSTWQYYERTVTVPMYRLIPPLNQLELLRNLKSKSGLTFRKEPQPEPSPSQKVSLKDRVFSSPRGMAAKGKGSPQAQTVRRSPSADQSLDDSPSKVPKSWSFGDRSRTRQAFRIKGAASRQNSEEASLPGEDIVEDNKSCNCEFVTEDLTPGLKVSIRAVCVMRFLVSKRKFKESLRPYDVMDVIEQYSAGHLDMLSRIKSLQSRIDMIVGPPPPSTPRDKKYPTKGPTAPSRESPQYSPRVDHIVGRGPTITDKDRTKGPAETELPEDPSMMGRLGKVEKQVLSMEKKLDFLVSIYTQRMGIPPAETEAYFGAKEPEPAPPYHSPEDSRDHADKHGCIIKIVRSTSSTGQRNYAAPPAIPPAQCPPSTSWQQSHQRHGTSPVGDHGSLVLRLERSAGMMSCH
Respond numerically; units are nM and should not be typed.

>  <molecule>
CCOC(=O)Nc1ccc(NCc2ccc(F)cc2)cc1N [EZOGABINE]

>  <EC50 [nM]>
1300

$$$$
>  <molecule>
C[C@H](NC(=O)/C=C/c1ccccc1F)c1ccc2c(c1)N(C)CCO2

>  <EC50 [nM]>
940

$$$$
>  <molecule>
C[C@H](NC(=O)/C=C/c1ccccc1)c1cccc(N2CCOCC2)c1

>  <EC50 [nM]>
3280

$$$$
>  <molecule>
CCN1CCOc2ccc([C@H](C)NC(=O)/C=C/c3ccccc3F)cc21

>  <EC50 [nM]>
200

$$$$
>  <molecule>
C[C@H](NC(=O)/C=C/c1ccccc1F)c1ccc2c(c1)N(CC1CC1)CCO2

>  <EC50 [nM]>
60

$$$$

Continue with the molecule presented below.
Sample `C[C@H](NC(=O)/C=C/c1ccccc1F)c1ccc2c(c1)NCCO2` — what was its EC50?
2000
